Reference for the values: ChEMBL document CHEMBL4818999

// reported bioavailability for each item listed
Experiment: Oral bioavailability in Sprague-Dawley rat at 25 mg/kg
Format: ADME, organism-based
Settings: in vivo

{"Molecule": "COc1cc(N2CCN(C)CC2)ccc1Nc1ncc2c(C)cc(=O)n([C@H]3CC[C@@H](NC(=O)C4CCCCC4)CC3)c2n1", "bioavailability (%)": 45.2}
{"Molecule": "COc1cc(N2CCN(C)CC2)ccc1Nc1ncc2cc(C)c(=O)n([C@H]3CC[C@@H](NC(=O)C4CCCCC4)CC3)c2n1", "bioavailability (%)": 39.6}

* * *

Assay: Cmax in Sprague-Dawley rat at 5 mg/kg, iv
Type: ADME, organism-based
Set-up: route intravenous, dose 5 mg/kg
Settings: in vivo
Parameter Cmax: see the listing below.

{"Molecule": "COc1cc(N2CCN(C)CC2)ccc1Nc1ncc2c(C)cc(=O)n([C@H]3CC[C@@H](NC(=O)C4CCCCC4)CC3)c2n1", "Cmax [ng/mL]": 2530}
{"Molecule": "COc1cc(N2CCN(C)CC2)ccc1Nc1ncc2cc(C)c(=O)n([C@H]3CC[C@@H](NC(=O)C4CCCCC4)CC3)c2n1", "Cmax [ng/mL]": 4740}

* * *

Target: Phosphatidylinositol 4,5-bisphosphate 3-kinase catalytic subunit delta isoform (Homo sapiens, UniProt O00329)
Sequence (O00329 whole entry, the tested form may be a part, canonical isoform): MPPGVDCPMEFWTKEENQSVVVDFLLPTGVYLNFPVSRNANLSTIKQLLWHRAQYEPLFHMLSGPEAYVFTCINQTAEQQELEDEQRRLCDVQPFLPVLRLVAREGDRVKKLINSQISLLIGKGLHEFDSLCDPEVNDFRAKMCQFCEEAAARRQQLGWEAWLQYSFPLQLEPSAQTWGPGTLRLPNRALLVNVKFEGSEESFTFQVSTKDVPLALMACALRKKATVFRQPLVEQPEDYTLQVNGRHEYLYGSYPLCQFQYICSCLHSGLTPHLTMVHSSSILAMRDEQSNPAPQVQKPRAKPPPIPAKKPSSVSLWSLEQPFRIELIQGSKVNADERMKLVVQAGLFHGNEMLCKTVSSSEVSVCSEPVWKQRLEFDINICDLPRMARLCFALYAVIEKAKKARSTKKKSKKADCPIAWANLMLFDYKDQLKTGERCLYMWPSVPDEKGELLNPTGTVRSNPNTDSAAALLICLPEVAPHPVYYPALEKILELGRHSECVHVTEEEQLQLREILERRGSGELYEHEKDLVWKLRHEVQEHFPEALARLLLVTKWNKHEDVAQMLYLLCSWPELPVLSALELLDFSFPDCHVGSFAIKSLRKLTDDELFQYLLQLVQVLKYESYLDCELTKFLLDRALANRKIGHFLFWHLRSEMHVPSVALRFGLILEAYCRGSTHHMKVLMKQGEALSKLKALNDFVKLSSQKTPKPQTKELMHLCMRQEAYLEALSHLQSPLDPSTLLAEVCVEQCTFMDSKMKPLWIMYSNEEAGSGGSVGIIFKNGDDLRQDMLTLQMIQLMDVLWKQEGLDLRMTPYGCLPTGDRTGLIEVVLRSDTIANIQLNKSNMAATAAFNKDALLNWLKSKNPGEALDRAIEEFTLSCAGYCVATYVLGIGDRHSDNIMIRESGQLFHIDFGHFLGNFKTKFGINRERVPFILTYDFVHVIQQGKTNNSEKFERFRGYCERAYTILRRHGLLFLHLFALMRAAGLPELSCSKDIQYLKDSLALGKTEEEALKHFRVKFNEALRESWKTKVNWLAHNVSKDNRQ
Assay: Binding affinity to wild-type human partial length PIK3CD (R108 to Q1044 residues) expressed in HEK293 cells by active site-directed competition binding based Kinomescan method
Assay type: cell-based
pKd: −log10 of the molar value.
Assay readout: pKd

{"Molecule": "COc1cc(N2CCN(C)CC2)ccc1Nc1ncc2c(C)cc(=O)n([C@H]3CC[C@@H](NC(=O)C4CCCCC4)CC3)c2n1", "Assay readout": "pKd", "Result": "< 6.00"}

* * *

Experiment: Half life in Sprague-Dawley rat at 5 mg/kg, iv
Assay type: ADME, organism-based
Details: in vivo
# half-life annotations

{"Molecule": "COc1cc(N2CCN(C)CC2)ccc1Nc1ncc2cc(C)c(=O)n([C@H]3CC[C@@H](NC(=O)C4CCCCC4)CC3)c2n1", "Value unit": "min", "half-life": 372}
{"Molecule": "COc1cc(N2CCN(C)CC2)ccc1Nc1ncc2c(C)cc(=O)n([C@H]3CC[C@@H](NC(=O)C4CCCCC4)CC3)c2n1", "Value unit": "min", "half-life": 215}

* * *

Biological target: Dual specificity protein kinase TTK (Homo sapiens)
Sequence (P33981 whole entry, the tested form may be a part): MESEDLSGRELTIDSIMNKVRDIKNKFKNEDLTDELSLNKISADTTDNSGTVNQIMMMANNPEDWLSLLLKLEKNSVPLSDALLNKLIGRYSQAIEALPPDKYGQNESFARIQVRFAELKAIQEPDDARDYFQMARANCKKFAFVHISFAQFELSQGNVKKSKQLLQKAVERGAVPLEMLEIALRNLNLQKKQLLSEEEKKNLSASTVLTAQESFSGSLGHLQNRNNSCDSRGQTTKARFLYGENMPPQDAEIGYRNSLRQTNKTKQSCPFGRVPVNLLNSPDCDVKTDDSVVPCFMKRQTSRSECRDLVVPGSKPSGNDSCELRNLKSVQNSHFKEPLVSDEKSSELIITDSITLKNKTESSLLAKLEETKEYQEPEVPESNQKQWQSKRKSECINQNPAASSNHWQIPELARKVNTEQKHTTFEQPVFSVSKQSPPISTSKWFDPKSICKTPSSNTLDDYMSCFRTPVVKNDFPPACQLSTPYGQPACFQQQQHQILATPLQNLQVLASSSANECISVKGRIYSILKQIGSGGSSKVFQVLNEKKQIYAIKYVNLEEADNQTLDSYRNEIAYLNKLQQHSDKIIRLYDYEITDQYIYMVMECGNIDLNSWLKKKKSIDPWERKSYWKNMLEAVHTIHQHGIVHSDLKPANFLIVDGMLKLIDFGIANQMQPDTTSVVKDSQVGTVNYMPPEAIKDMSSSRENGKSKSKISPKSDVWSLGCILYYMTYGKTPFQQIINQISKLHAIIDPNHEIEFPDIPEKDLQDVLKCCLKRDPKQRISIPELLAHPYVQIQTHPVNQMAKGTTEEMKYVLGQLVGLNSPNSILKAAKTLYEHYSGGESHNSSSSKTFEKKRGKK
Assay: Binding affinity to wild-type human partial length TTK (N505 to V798 residues) expressed in bacterial expression system by active site-directed competition binding based Kinomescan method
pKd: −log10 of the molar value.
Examples of molecules with documented pKd follow.

{"Molecule": "CCC(=O)N1CC[C@@H](n2c(=O)cc(C)c3cnc(Nc4ccc(N5CCN(C)CC5)cc4OC)nc32)C1", "Prefix operator": "=", "pKd": 6.51}
{"Molecule": "CCC(=O)N[C@H]1CC[C@@H](n2c(=O)cc(CC)c3cnc(Nc4ccc(N5CCN(C)CC5)cc4OC)nc32)CC1", "Prefix operator": "=", "pKd": 8.82}
{"Molecule": "COc1cc(N2CCN(C)CC2)ccc1Nc1ncc2cc(C)c(=O)n([C@H]3CC[C@@H](NC(=O)C4CCCC4)CC3)c2n1", "Prefix operator": "=", "pKd": 9.77}
{"Molecule": "CCC(=O)N1CCC(n2c(=O)cc(C)c3cnc(Nc4ccc(N5CCN(C)CC5)cc4OC)nc32)CC1", "Prefix operator": "=", "pKd": 8.03}
{"Molecule": "COc1cc(N2CCN(C)CC2)ccc1Nc1ncc2c(C)cc(=O)n([C@H]3CC[C@@H](NC(C)=O)CC3)c2n1", "Prefix operator": "=", "pKd": 9.14}
{"Molecule": "CCC(=O)N[C@H]1CC[C@@H](n2c(=O)ccc3cnc(Nc4ccc(N5CCN(C)CC5)cc4OC)nc32)CC1", "Prefix operator": "=", "pKd": 9.39}
{"Molecule": "CCC(=O)N1CC(n2c(=O)cc(C)c3cnc(Nc4ccc(N5CCN(C)CC5)cc4OC)nc32)C1", "Prefix operator": "<", "pKd": 6.00}
